- method: Stability of meptazinol dicarboxylate bridged amino acid prodrugs in simulated gastric and intestinal juice and pH 7.4 buffer
- Format: physicochemical
- runConditions: pH 7.4 buffer, 2 h
measure: 2 h stability in pH7.4 buffer (37° C.), Conversion to meptazinol
Provide the measurement as a number trailed by its unit.

Reference set, count: 3
INSERT INTO measurements (molecule, recordedmeasurement) VALUES
  ('CCC1(c2cccc(OC(=O)CCCC(=O)Nc3ccc(C(=O)O)cc3)c2)CCCCN(C)C1 (stereo not shown) [Meptazinol [glutaryl-PABA] ester]', '80%'),
  ('CCC1(c2cccc(OC(=O)c3ccccc3C(=O)N[C@@H](Cc3ccccc3)C(=O)O)c2)CCCCN(C)C1.O=C(O)C(F)(F)F (stereo partly shown)', '72%'),
  ('CCC1(c2cccc(OC(=O)C(C)(C)CC(=O)N[C@H](C(=O)O)C(C)C)c2)CCCCN(C)C1 (stereo partly shown)', '2%');

// returns reported 2 h stability in pH7.4 buffer (37° C.), Conversion to meptazinol for input CCC1(c2cccc(OC(=O)CC(C)(C)CC(=O)Nc3ccc(C(=O)O)cc3)c2)CCCCN(C)C1 (stereo not shown) 93%

// returns reported 2 h stability in pH7.4 buffer (37° C.), Conversion to meptazinol for input CCC1(c2cccc(OC(=O)CCC(=O)N3CCC[C@H]3C(=O)O)c2)CCCCN(C)C1 (stereo partly drawn) [Meptazinol-[succinyl-(S)-proline] ester] 4%

// returns reported 2 h stability in pH7.4 buffer (37° C.), Conversion to meptazinol for input CCC1(c2cccc(OC(=O)C=CC(=O)Nc3ccc(C(=O)O)cc3)c2)CCCCN(C)C1 (stereo not shown) [Meptazinol [fumaryl-PABA] ester] 47%

// returns reported 2 h stability in pH7.4 buffer (37° C.), Conversion to meptazinol for input CCC1(c2cccc(OC(=O)CC(C)(C)CC(=O)NCC(=O)O)c2)CCCCN(C)C1 (stereo not shown) 2%

---

- method: Systemic availability of hydrocodone in dogs after oral administration of hydrocodone or hydrocodone succinyl valine enol ester
- runConditions: male, Beagle, dog, plasma, po, 1 mg hydrocodone free base equivalents/kg, Cmax of hydrocodone, male dogs, mean (n=5)
measure: Cmax
Provide the measurement as a number trailed by its unit.

// returns reported Cmax for input COc1ccc2c3c1O[C@H]1C(=O)CC[C@H]4[C@@H](C2)N(C)CC[C@]314 [Hydrocodone, hydrocodone] 75.6 ng/mL

---

- System: gut motility in the rat
- method: Charcoal propulsion test of GI motility in the rat
- Format: in vivo
- runConditions: oral, 30 mg/kg or equimolar dose
measure: delay of the passage of the charcoal meal (gut motility)

Reference set, count: 2
INSERT INTO assay_data (compound, recordedmeasurement) VALUES
  ('COc1ccc2c3c1O[C@H]1C(OC(=O)CCC(=O)NC(C(=O)O)C(C)C)=CC[C@@]4(O)[C@@H](C2)N(C)CC[C@]314 (stereo in doubt)', '~16%'),
  ('COc1ccc2c3c1O[C@H]1[C@@H](O)CC[C@H]4[C@@H](C2)N(C)CC[C@@]341 [Dihydrocodeine, dihydrocodeine, reference compound]', '~30%');

// returns reported delay of the passage of the charcoal meal (gut motility) for input COc1ccc2c3c1O[C@H]1[C@@H](OC(=O)CCC(=O)N[C@H](C(=O)O)C(C)C)CCC4[C@@H](C2)N(C)CC[C@@]341 (stereo partly drawn) 8.5%

// returns reported delay of the passage of the charcoal meal (gut motility) for input COc1ccc2c3c1O[C@H]1C(=O)CC[C@@]4(O)[C@@H](C2)N(C)CC[C@]314 [Oxycodone, oxycodone, reference compound] 52%

---

- method: Systemic availability of hydrocodone in dogs after oral administration of hydrocodone or hydrocodone succinyl valine enol ester
- runConditions: male, Beagle, dog, plasma, po, 1 mg hydrocodone free base equivalents/kg, AUCt of hydrocodone, male dogs, mean
measure: AUC(0-t) (ng·h/mL)
# unit: ng·h/mL | format: bare number

// returns reported AUC(0-t) for input COc1ccc2c3c1O[C@H]1C(=O)CC[C@H]4[C@@H](C2)N(C)CC[C@]314 [Hydrocodone, hydrocodone] 103

---

Reported values of % change from vehicle-treated animals, small intestine for individual entries
- Test system: gut motility in the rat
- method: Charcoal propulsion test of GI motility in the rat
- Type: in vivo
- runConditions: oral, 10 mg/kg
# unit: % | format: bare number

INSERT INTO assay_data (compound, recordedmeasurement) VALUES
  ('COc1ccc2c3c1O[C@H]1[C@@H](OC(=O)CCC(=O)NC(C(=O)O)C(C)C)CCC4[C@@H](C2)N(C)CC[C@@]341 (stereo in doubt)', '−17.4');

// returns reported % change from vehicle-treated animals, small intestine for input COc1ccc2c3c1O[C@H]1[C@@H](OC(=O)CCC(=O)N[C@H](C(=O)O)C(C)C)C=CC4[C@@H](C2)N(C)CC[C@@]341 (stereo partly drawn) [Codeine-[succinyl-(S)-valine] ester, codeine-[succinyl-(S)-valine]ester] −9.7

// returns reported % change from vehicle-treated animals, small intestine for input COc1ccc2c3c1O[C@H]1C(=O)CC[C@@]4(O)[C@@H](C2)N(C)CC[C@]314 [Oxycodone, oxycodone, reference compound] −15.6

---

- Tested on: gut motility in the rat
- method: Charcoal propulsion test of GI motility in the rat
- Type: in vivo
- runConditions: oral, 10 mg/kg
measure: % change from vehicle-treated animals, total gut length (%)
# unit: % | format: bare number

Reference set, count: 5
INSERT INTO measurements (compound, recordedmeasurement) VALUES
  ('COc1ccc2c3c1O[C@H]1C(=O)CC[C@@]4(O)[C@@H](C2)N(C)CC[C@]314 [Oxycodone, oxycodone, reference compound]', '−16.0'),
  ('COc1ccc2c3c1O[C@H]1[C@@H](O)C=C[C@H]4[C@@H](C2)N(C)CC[C@@]341 [Codeine phosphate hemihydrate]', '−21.7'),
  ('COc1ccc2c3c1O[C@H]1[C@@H](OC(=O)CCC(=O)NC(C(=O)O)C(C)C)CCC4[C@@H](C2)N(C)CC[C@@]341 (stereo in doubt)', '−16.6'),
  ('COc1ccc2c3c1O[C@H]1[C@@H](O)CC[C@H]4[C@@H](C2)N(C)CC[C@@]341.O=C(O)C(O)C(O)C(=O)O [Dihydrocodeine Hydrogen Tartrate, reference compound]', '−16.3'),
  ('COc1ccc2c3c1O[C@H]1[C@@H](OC(=O)CCC(=O)N[C@H](C(=O)O)C(C)C)C=CC4[C@@H](C2)N(C)CC[C@@]341 (stereo partly drawn) [Codeine-[succinyl-(S)-valine] ester, codeine-[succinyl-(S)-valine]ester]', '−9.3');

Continue with the compound presented below.
// returns reported % change from vehicle-treated animals, total gut length for input COc1ccc2c3c1O[C@H]1C(OC(=O)CCC(=O)NC(C(=O)O)C(C)C)=CC[C@@]4(O)[C@@H](C2)N(C)CC[C@]314 (stereo in doubt) −11.2

---

- method: Bioavailability of oxycodone, codeine and dihydrocodeine from their succinyl valine ester prodrugs in the dog (oral gavage, two-way crossover)
- runConditions: dogs, oral gavage, 1 mg free base equivalents codeine/kg; median (n=5)
Reported values of T>50%Cmax of codeine for individual entries
# unit: h | format: bare number

INSERT INTO measurements (molecule, valueunit, recordedmeasurement) VALUES
  ('COc1ccc2c3c1O[C@H]1[C@@H](OC(=O)CCC(=O)NC(C(=O)O)C(C)C)C=CC4[C@@H](C2)N(C)CC[C@@]341 (stereo in doubt) [Codeine-[succinyl-(S)-valine] ester, codeine-[succinyl-(S)-valine]ester]', 'h', 2);

Continue with the molecule presented below.
// returns reported T>50%Cmax of codeine for input COc1ccc2c3c1O[C@H]1[C@@H](O)C=C[C@H]4[C@@H](C2)N(C)CC[C@@]341 [codeine, reference compound] 1.2

---

- method: Plasma pharmacokinetics of meptazinol dicarboxylate linked prodrugs after oral gavage to cynomolgus monkeys
- Assay type: in vivo, cynomolgus monkey
- runConditions: cynomolgus monkey; oral gavage of prodrug, 1 mg meptazinol base equivalents/kg; prodrug level; BLQ = below 0.5 ng/mL
measure: Monkey Cmax (plasma prodrug levels, in brackets) (ng/mL)
# unit: ng/mL | format: bare number

// returns reported Monkey Cmax (plasma prodrug levels, in brackets) for input CCC1(c2cccc(OC(=O)CC(C)(C)CC(=O)NCC(=O)O)c2)CCCCN(C)C1 (stereo not drawn) 18

---

- method: Comparative pharmacokinetics of oxycodone in the cynomolgus monkey after oral administration
- runConditions: male, cynomolgus monkey, plasma, po, 1 mg oxycodone base equivalents/kg, AUCt of intact prodrug, male cynomolgus monkeys, oral prodrug, 1 mg oxycodone free base equivalents/kg; mean (n=5)
measure: AUC(0-t) (ng·h/mL)
# unit: ng·h/mL | format: bare number

// returns reported AUC(0-t) for input COc1ccc2c3c1O[C@H]1C(OC(=O)CCC(=O)NC(C(=O)O)C(C)C)=CC[C@@]4(O)[C@@H](C2)N(C)CC[C@]314 (stereo in doubt) 0.78

---

- method: Comparative pharmacokinetics of oxycodone after oral administration to female Sprague Dawley rats
- runConditions: female, Sprague Dawley, rat, plasma, po, 10 mg oxycodone free base equivalents/kg, AUCt of intact prodrug, oral prodrug, mean (BLQ taken as zero)
measure: AUC(0-t) (ng·h/mL)
# unit: ng·h/mL | format: bare number

// returns reported AUC(0-t) for input COc1ccc2c3c1O[C@H]1C(OC(=O)CCC(=O)NC(C(=O)O)C(C)C)=CC[C@@]4(O)[C@@H](C2)N(C)CC[C@]314 (stereo in doubt) 1.24
